Below, each entry is listed with its recorded ABSOLUTE EOSINOPHIL.
species on record: Rattus norvegicus; format: toxicity, organism-based, Sprague-Dawley; conditions: in vivo, po, 0 mg/kg, 24 h, vehicle control, tissue Blood, route oral GAVAGE, dose level Control, time 1 day, […]
Description: DrugMatrix - Regimen: Single

{"COMPOUND": "CC[C@H](C)C(=O)O[C@H]1C[C@H](O)C=C2C=C[C@H](C)[C@H](CC[C@@H](O)C[C@@H](O)CC(=O)O)[C@H]21", "UNIT": "cells/µL", "ABSOLUTE EOSINOPHIL": 32.5}
{"COMPOUND": "CC(CCc1ccc(O)cc1)NCCc1ccc(O)c(O)c1 (stereo not drawn)", "UNIT": "cells/µL", "ABSOLUTE EOSINOPHIL": 130}
